// provenance: patent US11046709B2

Assign IC50 to each entry below.
SUBJECT_OF_TEST: BRD3 BD2 (Homo sapiens, UniProt Q15059)
Sequence (Q15059 306-415 limits assumed): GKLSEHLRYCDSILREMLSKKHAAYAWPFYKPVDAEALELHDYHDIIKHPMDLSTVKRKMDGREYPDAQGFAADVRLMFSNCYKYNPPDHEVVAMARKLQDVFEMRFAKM
ASSAY_NAME: Competitive FP binding assay, BRD3 BD2
RUN_CONDITIONS: Table 8, read-out: IC50 (nM) in FP assays BRD3 BD2

Notebook: Cc1c(C#CC2CCOCC2)sc2c1C(c1ccc(Cl)cc1)=N[C@@H](CC(=O)N1CC(C)(O)C1)c1nnc(C)n1-2 [Compound 158] , IC50 read as 220 nM

Notebook: Cc1nnc(C[C@@H]2N=C(c3ccc(Cl)cc3)c3c(sc(C#CC4CCOCC4)c3C)-n3c(C)nnc32)o1 [Compound 145] , IC50 read as 161 nM

Notebook: Cc1c(C#CC2CCOCC2)sc2c1C(c1ccc(Cl)cc1)=N[C@@H](CC(=O)N1CCC(C)(O)CC1)c1nnc(C)n1-2 [Compound 157] , IC50 read as 120 nM

Notebook: Cc1c(C#CC2CCOCC2)sc2c1C(c1ccc(Cl)cc1)=N[C@@H](CC(=O)N1CCC(O)CC1)c1nnc(C)n1-2 [Compound 159] , IC50 read as 127 nM
